Target: p210 Bcr-Abl (Homo sapiens)
Construct: the other entry of the earlier key: BCR (P11274, Breakpoint cluster region protein)
Sequence (P00519 28-1130 limits assumed): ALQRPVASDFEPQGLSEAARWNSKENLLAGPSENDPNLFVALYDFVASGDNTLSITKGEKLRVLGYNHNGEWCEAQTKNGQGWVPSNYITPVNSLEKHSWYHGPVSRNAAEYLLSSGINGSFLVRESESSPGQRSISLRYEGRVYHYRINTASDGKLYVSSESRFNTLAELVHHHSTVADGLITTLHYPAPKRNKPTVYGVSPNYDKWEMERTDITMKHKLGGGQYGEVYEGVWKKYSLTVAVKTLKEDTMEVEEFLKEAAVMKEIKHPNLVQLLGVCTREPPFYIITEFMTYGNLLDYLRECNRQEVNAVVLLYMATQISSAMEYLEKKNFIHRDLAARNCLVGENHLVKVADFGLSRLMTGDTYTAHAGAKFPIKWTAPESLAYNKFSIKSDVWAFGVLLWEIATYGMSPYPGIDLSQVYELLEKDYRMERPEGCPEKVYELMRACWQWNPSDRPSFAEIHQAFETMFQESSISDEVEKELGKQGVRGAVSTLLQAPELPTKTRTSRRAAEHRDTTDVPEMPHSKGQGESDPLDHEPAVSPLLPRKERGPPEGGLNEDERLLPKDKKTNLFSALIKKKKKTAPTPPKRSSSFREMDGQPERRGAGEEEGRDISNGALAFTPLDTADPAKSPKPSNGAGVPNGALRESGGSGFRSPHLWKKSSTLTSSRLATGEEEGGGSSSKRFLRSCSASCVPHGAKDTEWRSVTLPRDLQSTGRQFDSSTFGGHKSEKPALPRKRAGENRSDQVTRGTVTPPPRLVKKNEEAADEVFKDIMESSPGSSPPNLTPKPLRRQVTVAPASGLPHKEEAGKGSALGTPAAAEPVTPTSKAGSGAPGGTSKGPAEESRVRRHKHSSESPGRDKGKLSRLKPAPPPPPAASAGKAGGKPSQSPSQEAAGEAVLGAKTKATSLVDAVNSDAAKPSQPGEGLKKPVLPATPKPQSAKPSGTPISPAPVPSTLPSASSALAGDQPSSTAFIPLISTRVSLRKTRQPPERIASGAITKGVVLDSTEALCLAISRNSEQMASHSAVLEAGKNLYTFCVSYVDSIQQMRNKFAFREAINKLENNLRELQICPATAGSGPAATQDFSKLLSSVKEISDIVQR
Test: Test for activity against Bcr-Abl (Bcr-Abl phosphorylation ELISA in 32D-bcr/abl cells)
Conditions: expressed as a range within which individual IC50 measurements fall
Measurement Label: IC50

Some entries whose results are on file:
[[record]]
mol = "Cc1ccc(NC(=O)c2ccc(N3CCCC3)c(C(F)(F)F)c2)cc1Nc1nccc(-c2cccnc2)n1"
value_reported = "100 to 300 nM"

[[record]]
mol = "Cc1ccc(NC(=O)c2ccc(N(C)CCN(C)C)c(C(F)(F)F)c2)cc1Nc1nccc(-c2cccnc2)n1"
value_reported = "50 to 200 nM"


Next up:
Looking up CC(=O)Nc1cc(C(=O)Nc2ccc(C)c(Nc3nccc(-c4cccnc4)n3)c2)cc(C(F)(F)F)c1 , I found its IC50 recorded as 13 nM

====

Biological target: p210 Bcr-Abl (Homo sapiens)
Construct: the other entry of the earlier key: BCR (P11274, Breakpoint cluster region protein)
Assay: Test for activity against Bcr-Abl (Bcr-Abl phosphorylation ELISA in 32D-bcr/abl cells)
Conditions: expressed as a range within which individual IC50 measurements fall
Measurement Label: IC50

[[record]]
mol = "CCNc1cc(C(=O)Nc2ccc(C)c(Nc3nccc(-c4cccnc4)n3)c2)cc(C(F)(F)F)c1"
measurement_label = "IC50"
value_reported = "20 to 60 nM"

[[record]]
mol = "CCN(CC)c1ccc(C(=O)Nc2ccc(C)c(Nc3nccc(-c4cccnc4)n3)c2)cc1C(F)(F)F"
measurement_label = "IC50"
value_reported = "200 to 500 nM"

[[record]]
mol = "Cc1ccc(NC(=O)c2ccc(-n3ccnc3)c(C(F)(F)F)c2)cc1Nc1nccc(-c2cccnc2)n1"
measurement_label = "IC50"
value_reported = "10 to 50 nM"


IC50 in this record for Cc1cn(-c2ccc(C(=O)Nc3ccc(C)c(Nc4nccc(-c5cccnc5)n4)c3)cc2C(F)(F)F)cn1 : 10 to 50 nM

For this compound ( Cc1ccc(NC(=O)c2cc(-n3ccnc3)cc(C(F)(F)F)c2)cc1Nc1nccc(-c2cccnc2)n1 ), measured IC50 is 10 to 50 nM

Input Cc1ccc(NC(=O)c2ccc(-n3ccnc3C)c(C(F)(F)F)c2)cc1Nc1nccc(-c2cccnc2)n1 . Output IC50: 10 to 50 nM

Cc1ccc(NC(=O)c2cc(-n3ccnc3C)cc(C(F)(F)F)c2)cc1Nc1nccc(-c2cccnc2)n1 has a reported IC50 of 10 to 50 nM

====

Target: p210 Bcr-Abl (Homo sapiens)
Construct: the other entry of the earlier key: BCR (P11274, Breakpoint cluster region protein)
Experiment: Test for activity against Bcr-Abl (Bcr-Abl phosphorylation ELISA in 32D-bcr/abl cells)
Conditions: expressed as a range within which individual IC50 measurements fall
Measurement Label: IC50

# example entries with known answers
[[record]]
mol = "Cc1ccc(NC(=O)c2ccc(N(C)C3CCN(C)CC3)c(C(F)(F)F)c2)cc1Nc1nccc(-c2cccnc2)n1"
measurement_label = "IC50"
value_reported = "50 to 200 nM"

[[record]]
mol = "Cc1ccc(NC(=O)c2cc(N3CCOCC3)cc(C(F)(F)F)c2)cc1Nc1nccc(-c2cccnc2)n1"
measurement_label = "IC50"
value_reported = "20 to 80 nM"

[[record]]
mol = "Cc1ccc(NC(=O)c2ccc(N3CCOCC3)c(C(F)(F)F)c2)cc1Nc1nccc(-c2cccnc2)n1"
measurement_label = "IC50"
value_reported = "20 to 100 nM"


Please find the next compound below.
# IC50 of Cc1cn(-c2ccc(C(=O)Nc3ccc(C)c(Nc4nccc(-c5cccnc5)n4)c3)cc2C(F)(F)F)c(C)n1 = 20 to 80 nM

Taken from patent US7655669B2.
